Would you kindly list pIC50 for each of these molecules?
# system_tested: binding of His-XIAP(BIR2)-avi fusion protein to GST-RIPK2 fusion protein (RIPK2/XIAP) (Homo sapiens)
# Construct: made in house; host or cells: baculovirus infected Sf9 cells
# Sequence (O43353 1-310 limits assumed): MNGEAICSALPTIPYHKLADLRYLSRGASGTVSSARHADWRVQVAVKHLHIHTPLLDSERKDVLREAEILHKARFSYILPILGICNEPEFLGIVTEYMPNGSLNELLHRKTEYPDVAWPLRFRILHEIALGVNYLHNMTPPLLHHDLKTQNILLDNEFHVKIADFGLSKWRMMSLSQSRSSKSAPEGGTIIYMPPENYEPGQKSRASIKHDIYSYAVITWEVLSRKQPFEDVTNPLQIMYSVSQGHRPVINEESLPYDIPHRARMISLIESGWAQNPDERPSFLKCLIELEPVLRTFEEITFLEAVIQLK
# run_description: RIPK2-XIAP binding competition PPI assay (TR-FRET)
# experimental_setup: RIPK2/XIAP binding competition PPI assay; read-out: PPI IC50 bin
pIC50: −log10 of the molar value.

[
  {
    "molecule": "CC(F)(CO)COc1cc2ncc(-c3cc(Cl)c(N)nc3F)n2cc1S(=O)(=O)C(C)(C)C (single isomer, unassigned) [Example 266]",
    "pIC50": "8.60 to 9.00"
  },
  {
    "molecule": "COc1cc2ncc(-c3ccc4ncoc4c3)n2cc1S(=O)(=O)C(C)(C)C",
    "pIC50": "< 7.70"
  },
  {
    "molecule": "CC(C)(C)S(=O)(=O)c1cn2c(-c3cc(F)c(N)nc3F)cnc2cc1OCCN1CC(O)C1",
    "pIC50": "7.70 to 8.60"
  }
]

Proceed to the following item.
So, CCS(=O)(=O)c1cn2c(-c3cc(F)c(OC)c(NS(=O)(=O)c4cnn(C)c4)c3)cnc2cc1OC ? Its pIC50 was > 9.00
